Molecular target: HCV NS3/4A protease genotype 1b (Hepatitis C virus genotype 1b, UniProt P26663)
Assay: HCV NS3/4A protease time-resolved fluorescence (TRF) assay, Ki against genotype 1b
Type: biochemical
Conditions: IC50 [gt-1b] (nM), NS3/4A genotype 1b, enzyme 0.2 nM
endpoint: IC50
Answer with the value and then the unit.

Tested system HCV NS3/4A protease genotype 1b (Hepatitis C virus genotype 1b, UniProt P26663); IC50 recorded for "CCc1ccc2nc(C)c3c(c2c1)CC[C@]1(C[C@H]2C(=O)N[C@]4(C(=O)NS(=O)(=O)C5(C)CC5)C[C@H]4/C=C\CCCCC[C@H](NC(=O)OC(C)(C)C)C(=O)N2C1)O3" was 0.016 nM

Tested system HCV NS3/4A protease genotype 1b (Hepatitis C virus genotype 1b, UniProt P26663); IC50 recorded for "COc1ccc2nc(C)c3c(c2c1)CC[C@]1(C[C@H]2C(=O)N[C@]4(C(=O)NS(=O)(=O)C5(C)CC5)C[C@H]4CCCCCCC[C@H](NC(=O)OC(C)(C)C)C(=O)N2C1)O3" was 0.013 nM

Tested system HCV NS3/4A protease genotype 1b (Hepatitis C virus genotype 1b, UniProt P26663); IC50 recorded for "COc1ccc2nc(C(C)C)c3c(c2c1)C(F)(F)C[C@]1(C[C@H]2C(=O)N[C@]4(C(=O)NS(=O)(=O)C5(C)CC5)C[C@H]4/C=C\CCCCC[C@H](NC(=O)OC(C)(C)C)C(=O)N2C1)O3" was 0.004 nM

###

Biological target: HCV NS3/4A protease genotype 1b (Hepatitis C virus genotype 1b)
Assay: HCV NS3/4A protease time-resolved fluorescence (TRF) assay, Ki against genotype 1b
Format: biochemical
Conditions: IC50 [gt-1b] (nM), NS3/4A genotype 1b, enzyme 0.2 nM
Please respond with reported IC50 for every item in the list.
Report as a plain number; the unit nM is understood.

Tested system HCV NS3/4A protease genotype 1b (Hepatitis C virus genotype 1b); IC50 recorded for "Cc1nc2ccccc2c2c1O[C@@]1(C[C@H]3C(=O)N[C@]4(C(=O)NS(=O)(=O)C5(C)CC5)C[C@H]4/C=C\CCCCC[C@H](NC(=O)OCC(C)C)C(=O)N3C1)CC2(F)F" was 0.048

Tested system HCV NS3/4A protease genotype 1b (Hepatitis C virus genotype 1b); IC50 recorded for "CC(C)NC(=O)N[C@H]1CCCCC/C=C\[C@@H]2C[C@@]2(C(=O)NS(=O)(=O)C2(C)CC2)NC(=O)[C@@H]2C[C@]3(CCc4c(c(-c5cccc(F)c5)nc5ccccc45)O3)CN2C1=O" was 0.013

Tested system HCV NS3/4A protease genotype 1b (Hepatitis C virus genotype 1b); IC50 recorded for "COc1ccc2nc(CC(F)(F)F)c3c(c2c1)CC[C@]1(C[C@H]2C(=O)N[C@]4(C(=O)NS(=O)(=O)C5(C)CC5)C[C@H]4/C=C\CCCCC[C@H](NC(=O)OCC(C)(C)C)C(=O)N2C1)O3" was 0.006

Tested system HCV NS3/4A protease genotype 1b (Hepatitis C virus genotype 1b); IC50 recorded for "Cc1nc2ccc(OCC(F)(F)F)cc2c2c1O[C@]1(CC2)C[C@H]2C(=O)N[C@]3(C(=O)NS(=O)(=O)C4(C)CC4)C[C@H]3/C=C\CCCCC[C@H](NC(=O)OC(C)(C)C(F)(F)F)C(=O)N2C1" was 0.013

Tested system HCV NS3/4A protease genotype 1b (Hepatitis C virus genotype 1b); IC50 recorded for "CC(C)(C)OC(=O)N[C@H]1CCCCC/C=C\[C@@H]2C[C@@]2(C(=O)NS(=O)(=O)C2(C)CC2)NC(=O)[C@@H]2C[C@]3(CCc4c(c(CN5CCOCC5)nc5ccccc45)O3)CN2C1=O" was 0.058
